Assay: Degradation of nine organochlorine pesticides by gamma irradiation in samples of P. quinquefolium (GC analysis)
Assay type: physicochemical
Conditions: 10 kGy gamma irradiation, P. quinquefolium samples, mean of three
Give measured remaining concentration of organochlorine pesticides in samples for each item. Keep answers brief.
Phrase the answer as number then unit, nothing more needed.

Field: example entries. Status: answers known.
Record Clc1ccc(C(c2ccc(Cl)cc2)C(Cl)(Cl)Cl)cc1 [p,p′-DDT] , field remaining concentration of organochlorine pesticides in samples: 0.242 ppm

Record ClC1=C(Cl)C2(Cl)C3C(Cl)C=CC3C1(Cl)C2(Cl)Cl (stereo not drawn) [Heptachlor] , field remaining concentration of organochlorine pesticides in samples: 0.319 ppm

Record Cl[C@H]1[C@H](Cl)[C@@H](Cl)[C@@H](Cl)[C@H](Cl)[C@H]1Cl [Lindane] , field remaining concentration of organochlorine pesticides in samples: 0.278 ppm

Record Clc1ccc(C(c2ccccc2Cl)C(Cl)Cl)cc1 (stereo not drawn) [o,p′-DDD] , field remaining concentration of organochlorine pesticides in samples: 0.250 ppm

Record O=S1OC[C@@H]2[C@H](CO1)[C@]1(Cl)C(Cl)=C(Cl)[C@]2(Cl)C1(Cl)Cl (stereo partly drawn) [Endosulfan-2] , field remaining concentration of organochlorine pesticides in samples: 0.263 ppm

Could you report remaining concentration of organochlorine pesticides in samples for every entry in the following list?
1. O=S1OC[C@@H]2[C@H](CO1)[C@@]1(Cl)C(Cl)=C(Cl)[C@]2(Cl)C1(Cl)Cl (stereo partly drawn) [Endosulfan-1]
2. ClC(Cl)=C(c1ccc(Cl)cc1)c1ccc(Cl)cc1 [p,p′-DDE]
3. ClC1=C(Cl)C2(Cl)C3C4C=CC(C4)C3C1(Cl)C2(Cl)Cl (stereo not drawn) [Aldrin]
4. Clc1ccc(C(c2ccc(Cl)cc2)C(Cl)Cl)cc1 [p,p′-DDD]

A:
0.311 ppm
0.313 ppm
0.279 ppm
0.282 ppm

====

Assay: Degradation of nine organochlorine pesticides by gamma irradiation in samples of P. quinquefolium (GC analysis)
Type: physicochemical
Details: 20 kGy gamma irradiation, P. quinquefolium samples, mean of three
readout-kind: remaining concentration of organochlorine pesticides in samples (ppm)
Numbers only, in ppm.

Field: example entries. Status: answers known.
Record "Clc1ccc(C(c2ccc(Cl)cc2)C(Cl)(Cl)Cl)cc1" , field remaining concentration of organochlorine pesticides in samples: 0.127

Record ClC1=C(Cl)C2(Cl)C3C4C=CC(C4)C3C1(Cl)C2(Cl)Cl (stereo not shown) , field remaining concentration of organochlorine pesticides in samples: 0.168

Could you report remaining concentration of organochlorine pesticides in samples for every entry in the following list?
1. ClC1=C(Cl)C2(Cl)C3C(Cl)C=CC3C1(Cl)C2(Cl)Cl (stereo not shown)
2. ClC(Cl)=C(c1ccc(Cl)cc1)c1ccc(Cl)cc1

A:
1: 0.195; 2: 0.195

====

Test: Degradation of nine organochlorine pesticides by gamma irradiation in samples of P. quinquefolium (GC analysis)
Assay type: physicochemical
Conditions: 15 kGy gamma irradiation, P. quinquefolium samples, mean of three
Give measured remaining concentration of organochlorine pesticides in samples for each item. Keep answers brief.
Numbers only, in ppm.

Record O=S1OC[C@@H]2[C@H](CO1)[C@]1(Cl)C(Cl)=C(Cl)[C@]2(Cl)C1(Cl)Cl (stereo partly drawn) [Endosulfan-2] , field remaining concentration of organochlorine pesticides in samples: 0.198

Could you report remaining concentration of organochlorine pesticides in samples for every entry in the following list?
1. Clc1ccc(C(c2ccccc2Cl)C(Cl)Cl)cc1 (stereo not drawn)
2. Cl[C@H]1[C@H](Cl)[C@@H](Cl)[C@@H](Cl)[C@H](Cl)[C@H]1Cl

A:
1. 0.196
2. 0.206

From: patent US20070281046A1
